system: SARS-CoV-2 hCoV-19/Australia/VIC01/2020; assay: microbe, parasite or virus in culture; assay type: cell-based; settings: Severe acute respiratory syndrome coronavirus 2, 96 h; positive control; Vero cells; […]; CPE by MTT after 4 days; read-out: EC50
pEC50: −log10 of the molar value.

molecule | target entity | pEC50
CCC(CC)COC(=O)[C@H](C)N[P@](=O)(OC[C@H]1O[C@@](C#N)(c2ccc3c(N)ncnn23)[C@H](O)[C@@H]1O)Oc1ccccc1 [Remdesivir, reference compound] | SARS-CoV-2 hCoV-19/Australia/VIC01/2020 | 5.30
